- Test system: MOLT-4 leukemia
- TEST_NAME: NCI-60 one-dose screen, 48 h (100 = growth as untreated, 0 = no growth, -100 = all killed)
- EXPERIMENTAL_CONTEXT: 10 µM unless noted
- Experimental: Growth inhibition of the MOLT-4 human tumor cell line is measured as a screen for anti-cancer activity. Cells are grown in 96 well plates and exposed to the test compound for 48 hours. Compounds are tested at a single concentration, which is 10^-5 M for most compounds. The reported endpoint is percent growth (GI% or GIPRCNT), where numbers from 0 - 100% represent growth inhibition, and numbers from -100% - 0 represent cell death. For example, a value of 40 represents 60% growth inhibition. […]
The panel holds about 83,000 compounds, 20% with a hit somewhere; the sample as a whole holds those more often.
Classification field: enter rule met for growth values not below 20%, rule not met for values below it.

INSERT INTO measurements (compound, subject_of_test, group) VALUES
  ('O=C(C(Br)C(Br)c1ccccc1)C(Br)C(Br)c1ccccc1 (stereo unspecified)', 'MOLT-4 leukemia', 'rule not met'),
  ('N#Cc1ccc(NC(=O)Nc2nc3ccc(OC(F)(F)F)cc3s2)cc1', 'MOLT-4 leukemia', 'rule not met'),
  ('C/C(=N\NC(=S)Nc1ccccc1)c1ccccn1', 'MOLT-4 leukemia', 'rule not met');

Prompt: Is reported growth greater than or equal to 20% here: "Cc1c(O)c(=O)n(-c2ccccc2)n1C"
Response: rule met

Prompt: Is reported growth greater than or equal to 20% here: CSC1=NC(=Nc2c(C)cccc2C)C2(CCC(C(C)(C)C)CC2)N1c1ccc(Cl)cc1 (stereo unspecified)
Response: rule met

Prompt: Please tell me: is the compound "COC(=O)c1cc2oc(/C=N/NC(=O)c3cc4oc(-c5cccc(C(F)(F)F)c5)cc4[nH]3)cc2n1Cc1ccccc1" at or over 20% in terms of growth?
Response: rule met

Prompt: Threshold query (growth >= 20%) on "O=C(Nc1ccc(Cl)c(C(F)(F)F)c1)c1ccc(Nc2ccc(Cl)nn2)cc1"
Response: rule met

Prompt: // inclusive: growth at least 20%? input: "CCCCn1c(-c2ccc(F)cc2)nc2cc(OC)c(OC)cc2c1=O"
Response: rule met

Prompt: Kindly determine if growth recorded for "COc1cc2nccc(Oc3ccc(NC(=O)C4(C(=O)Nc5ccc(F)cc5)CC4)cc3)c2cc1OC(=O)c1ccc(N)cc1" is above or exactly 20%.
Response: rule not met

Prompt: Exam item: decide whether the reported growth for "Cc1[nH]n(C(=O)c2ccncc2)c(=O)c1N=Nc1ccc(O)c(C(=O)O)c1" is at least 20%.
Response: rule met

Prompt: Hi team, for "CC(=O)c1ccc(Nc2nc(Cl)nc(Oc3c(Cl)cccc3Cl)n2)cc1" , is the recorded growth at or above 20%?
Response: rule met

Prompt: Tell me whether growth is at least 20% here: "CC(C)c1ccc(Cn2ccc3c4c(N)nc(NC5CC5)nc4ccc32)cc1"
Response: rule not met

Prompt: # check: growth of "COc1cccc(/C=N/N=C(N)N)c1" is greater than or equal to 20%
Response: rule met

Prompt: Would you say OC(c1cc2cc(Cl)ccc2c2cc(C(F)(F)F)ccc12)C1CCCCN1 (stereo unspecified) shows growth at minimum 20%?
Response: rule not met

Prompt: Given the entry CC1C2CCC(C2)C1COCCOCCO (stereo unspecified) , answer whether its growth meets or surpasses 20%.
Response: rule met
